molecular target: Bifunctional purine biosynthesis protein ATIC (Homo sapiens); assay: Inhibition of AICARFTase in human KB cells expressing RFC/FRalpha/PCFT assessed as cell growth inhibition at 1 to 1000 nM after 96 hrs by CellTiter-Blue assay in presence of 320 uM AICA; format: cell-based
Active and inactive are the calls of the source. The rule behind the calls is not given here.
// allowed return values: yes for active, no for inactive

Just curious, what result did `Nc1nc2[nH]cc(CCCCc3ccc(C(=O)N[C@@H](CCC(=O)O)C(=O)O)s3)c2c(=O)[nH]1` get here?
yes

Just curious, what result did `Nc1nc2[nH]cc(CCCCCc3ccc(C(=O)N[C@@H](CCC(=O)O)C(=O)O)s3)c2c(=O)[nH]1` get here?
no

Just curious, what result did `Nc1nc2[nH]cc(CCCc3ccc(C(=O)N[C@@H](CCC(=O)O)C(=O)O)s3)c2c(=O)[nH]1` get here?
yes

Just curious, what result did `Nc1nc2[nH]c(CCCCc3ccc(C(=O)N[C@@H](CCC(=O)O)C(=O)O)s3)cc2c(=O)[nH]1` get here?
no

---

Field: IC50. Provide a value for each of the compounds that follow.
Target: Trifunctional purine biosynthetic protein adenosine-3 (Homo sapiens)
Sequence (P22102 whole entry): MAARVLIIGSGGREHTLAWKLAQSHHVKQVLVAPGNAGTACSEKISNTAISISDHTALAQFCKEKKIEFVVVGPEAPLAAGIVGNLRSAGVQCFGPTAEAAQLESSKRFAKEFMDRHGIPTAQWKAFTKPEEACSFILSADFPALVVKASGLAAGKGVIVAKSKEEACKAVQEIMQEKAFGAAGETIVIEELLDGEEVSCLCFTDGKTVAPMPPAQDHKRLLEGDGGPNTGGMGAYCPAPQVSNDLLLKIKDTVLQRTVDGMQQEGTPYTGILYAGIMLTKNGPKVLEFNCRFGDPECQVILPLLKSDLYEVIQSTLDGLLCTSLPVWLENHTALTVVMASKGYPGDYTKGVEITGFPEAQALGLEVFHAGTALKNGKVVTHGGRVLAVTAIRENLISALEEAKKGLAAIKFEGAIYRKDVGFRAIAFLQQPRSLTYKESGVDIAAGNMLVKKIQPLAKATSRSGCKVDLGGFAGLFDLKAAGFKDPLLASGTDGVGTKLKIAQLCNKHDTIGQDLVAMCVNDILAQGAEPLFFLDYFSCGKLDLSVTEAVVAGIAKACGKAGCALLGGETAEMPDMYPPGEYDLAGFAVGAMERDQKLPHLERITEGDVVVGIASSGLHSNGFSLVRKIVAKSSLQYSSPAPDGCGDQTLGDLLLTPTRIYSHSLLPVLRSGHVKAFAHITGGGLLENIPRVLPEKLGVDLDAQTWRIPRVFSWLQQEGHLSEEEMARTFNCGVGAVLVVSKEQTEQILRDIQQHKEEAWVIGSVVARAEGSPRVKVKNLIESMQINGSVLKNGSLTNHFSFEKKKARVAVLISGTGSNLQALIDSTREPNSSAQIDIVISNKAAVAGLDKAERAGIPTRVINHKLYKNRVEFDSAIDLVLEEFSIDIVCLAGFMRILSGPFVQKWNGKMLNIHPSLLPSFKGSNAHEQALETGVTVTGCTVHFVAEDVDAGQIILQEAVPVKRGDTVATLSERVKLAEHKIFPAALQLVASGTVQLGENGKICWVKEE
Assay: Inhibition of GARFTase in human KB cells expressing RFC/FRalpha/PCFT assessed as incorporation of [U-14C]-glycine into [14C]-formyl glycinamide ribonucleotide incubated for 1 hr followed by [U-14C]-glycine addition measured after 16 hrs
Write the number in nM without appending the unit.

Consider the compound shown here: `Nc1nc2[nH]cc(CCCCc3ccc(C(=O)N[C@@H](CCC(=O)O)C(=O)O)s3)c2c(=O)[nH]1` What is its recorded IC50?
61

Consider the compound shown here: `Nc1nc2[nH]c(CCCCc3ccc(C(=O)N[C@@H](CCC(=O)O)C(=O)O)s3)cc2c(=O)[nH]1` What is its recorded IC50?
3.13
